These entries and their values trace back to paper PMC8809517.

Molecular target: T1, GFP-9S library array, motif 4 ND N98V;D124K (synthetic construct, N98V;D124K)
T1 chain: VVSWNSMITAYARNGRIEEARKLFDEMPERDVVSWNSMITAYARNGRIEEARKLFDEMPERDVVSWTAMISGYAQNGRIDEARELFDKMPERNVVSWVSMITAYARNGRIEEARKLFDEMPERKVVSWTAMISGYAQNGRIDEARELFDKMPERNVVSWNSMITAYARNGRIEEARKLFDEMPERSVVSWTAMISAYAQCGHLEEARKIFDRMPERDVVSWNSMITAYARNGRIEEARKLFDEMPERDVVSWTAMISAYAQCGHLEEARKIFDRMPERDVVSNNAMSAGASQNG
Experiment: high-throughput RNA pulldown from lysate on Ni-NTA beads; HRP: 50 mM Tris pH 8, 150 mM NaCl, 1 mM beta-mercaptoethanol, 50 ug/ml BSA, 3 ug/ml yeast RNA, 0.5% heparin; ITC and FP: Tris pH 8, 200 mM KCl, 5% glycerol; MST: 50 mM Tris pH 8, 200 mM NaCl, 1 mM DTT, BSA, heparin, 0.05% Tween 20
Conditions: tags: N-terminal His-eGFP; label: 5' Cy5
Collected pKd values appear next to each entry.
Bear in mind: pKd is minus log10 of a mol/L concentration; give just that figure.

binder="AUUACACGUGA (ssRNA) [Cy5-rpoA]" readoutkind=pKd readoutvalue=7.01

Continue with the next binder.
Ask | Consider the binder AUUAGACGUGA (ssRNA) [Cy5-rpoA-G] and give its measured pKd.
Reply | 7.04
